system: red blood cells; settings: at 150 µM peptide; 0.5% v/v RBC in PBS, 1 h 37 °C, absorbance 414 nm, normalized to melittin (100%) and PBS (0%)
Square brackets hold non-standard residues; d marks the D form. Peptide text beside a SMILES is read from it. Bip = N[C@@H](Cc1ccc(-c2ccccc2)cc1)C(=O)O; 2Nal = N[C@@H](Cc1ccc2ccccc2c1)C(=O)O; Dab = NCC[C@H](N)C(=O)O; AEEA = NCCOCCOCC(=O)O
// percent hemolytic activity against red blood cells (%H) lookup, one value per entry
Just the number in %, nothing appended.

Record excerpt, results attached:
compound="N=C(N)NCCC[C@@H]1NC(=O)[C@H](CC(N)=O)NC(=O)[C@H](CCN)NC(=O)[C@H](Cc2ccc3ccccc3c2)NC(=O)COCCOCCNC(=O)[C@H](Cc2ccc(-c3ccccc3)cc2)NC(=O)[C@H](CCN)NC(=O)[C@H](CCN)NC(=O)[C@H](Cc2ccc3ccccc3c2)NC1=O [compound 10] (cyclo(R[2Nal][Dab][Dab][Bip][AEEA][2Nal][Dab]N))" value_units=% reading=66
compound="N=C(N)NCCC[C@@H]1NC(=O)[C@H](CCN)NC(=O)[C@H](Cc2ccc3ccccc3c2)NC(=O)[C@H](CCN)NC(=O)[C@H](CC(N)=O)NC(=O)[C@H](CCN)NC(=O)[C@H](Cc2ccc3ccccc3c2)NC(=O)COCCOCCNC(=O)[C@H](Cc2ccc(-c3ccccc3)cc2)NC1=O [compound 12] (cyclo([Dab][2Nal][Dab]R[Bip][AEEA][2Nal][Dab]N))" value_units=% reading=98

Switching to the query record.
Asked: Consider the compound NCCCC[C@@H]1NC(=O)[C@H](Cc2ccccc2)NC(=O)COCCOCCNC(=O)[C@H](Cc2ccccc2)NC(=O)[C@H](CCCCN)NC(=O)[C@H](CCCCN)NC(=O)[C@H](Cc2ccccc2)NC(=O)[C@H](CCCCN)NC(=O)[C@H](CC(N)=O)NC1=O [compound 8] (cyclo(KFKKF[AEEA]FKN)) and give its recorded percent hemolytic activity against red blood cells (%H).
Given back: 3

---

test system: A. baumannii ATCC 19606; type: cell-based; conditions: ATCC 19606
Square brackets hold non-standard residues; d marks the D form. Peptide text beside a SMILES is read from it. Bip = N[C@@H](Cc1ccc(-c2ccccc2)cc1)C(=O)O; 2Nal = N[C@@H](Cc1ccc2ccccc2c1)C(=O)O; Dab = NCC[C@H](N)C(=O)O; AEEA = NCCOCCOCC(=O)O
Minimum inhibitory concentration AB by entry:
Give the number; µg/mL is assumed, so skip it.

Asked: Supply Minimum inhibitory concentration AB value. Item: N=C(N)NCCC[C@@H]1NC(=O)[C@H](Cc2ccc3ccccc3c2)NC(=O)COCCOCCNC(=O)[C@H](Cc2ccc(-c3ccccc3)cc2)NC(=O)[C@H](CCN)NC(=O)[C@H](CCN)NC(=O)[C@H](Cc2ccc3ccccc3c2)NC(=O)[C@H](CCN)NC(=O)[C@H](CC(N)=O)NC1=O [compound 13] (cyclo([Dab][2Nal][Dab][Dab][Bip][AEEA][2Nal]RN))
Given back: 64

Asked: Entry NCCCC[C@@H]1NC(=O)[C@H](Cc2ccc3ccccc3c2)NC(=O)COCCOCCNC(=O)[C@H](Cc2ccc(-c3ccccc3)cc2)NC(=O)[C@H](CCCCN)NC(=O)[C@H](CCCCN)NC(=O)[C@H](Cc2ccc3ccccc3c2)NC(=O)[C@H](CCCCN)NC(=O)[C@H](CC(N)=O)NC1=O [BSI-9, reference compound] (cyclo(K[2Nal]KK[Bip][AEEA][2Nal]KN)) needs its Minimum inhibitory concentration AB filled in; supply it.
Given back: 32

Asked: Consider the molecule NCC[C@@H]1NC(=O)[C@H](Cc2ccc3ccccc3c2)NC(=O)COCCOCCNC(=O)[C@H](Cc2ccc(-c3ccccc3)cc2)NC(=O)[C@H](CCN)NC(=O)[C@H](CCN)NC(=O)[C@H](Cc2ccc3ccccc3c2)NC(=O)[C@H](CCN)NC(=O)[C@H](CC(N)=O)NC1=O [compound 9] (cyclo([Dab][2Nal][Dab][Dab][Bip][AEEA][2Nal][Dab]N)) . State its measured Minimum inhibitory concentration AB.
Given back: 32

---

test system: red blood cells; settings: at 150 µM peptide; 0.5% v/v RBC in PBS, 1 h 37 °C, absorbance 414 nm, normalized to melittin (100%) and PBS (0%)
Square brackets hold non-standard residues; d marks the D form. Peptide text beside a SMILES is read from it. Bip = N[C@@H](Cc1ccc(-c2ccccc2)cc1)C(=O)O; 2Nal = N[C@@H](Cc1ccc2ccccc2c1)C(=O)O; Dab = NCC[C@H](N)C(=O)O; AEEA = NCCOCCOCC(=O)O
Each record here notes measured percent hemolytic activity against red blood cells (%H).

molecule="NCCCC[C@@H]1NC(=O)[C@H](Cc2ccc3ccccc3c2)NC(=O)COCCOCCNC(=O)[C@H](Cc2ccc(-c3ccccc3)cc2)NC(=O)[C@H](CCCCN)NC(=O)[C@H](CCCCN)NC(=O)[C@H](Cc2ccc3ccccc3c2)NC(=O)[C@H](CCCCN)NC(=O)[C@H](CC(N)=O)NC1=O [BSI-9, reference compound] (cyclo(K[2Nal]KK[Bip][AEEA][2Nal]KN))" assayed_target="red blood cells" reading=33%
molecule="N=C(N)NCCC[C@@H]1NC(=O)[C@H](Cc2ccc3ccccc3c2)NC(=O)COCCOCCNC(=O)[C@H](Cc2ccc(-c3ccccc3)cc2)NC(=O)[C@H](CCN)NC(=O)[C@H](CCN)NC(=O)[C@H](Cc2ccc3ccccc3c2)NC(=O)[C@H](CCN)NC(=O)[C@H](CC(N)=O)NC1=O [compound 13] (cyclo([Dab][2Nal][Dab][Dab][Bip][AEEA][2Nal]RN))" assayed_target="red blood cells" reading=80%
molecule="NCC[C@@H]1NC(=O)[C@H](Cc2ccc3ccccc3c2)NC(=O)COCCOCCNC(=O)[C@H](Cc2ccc(-c3ccccc3)cc2)NC(=O)[C@H](CCN)NC(=O)[C@H](CCN)NC(=O)[C@H](Cc2ccc3ccccc3c2)NC(=O)[C@H](CCN)NC(=O)[C@H](CC(N)=O)NC1=O [compound 9] (cyclo([Dab][2Nal][Dab][Dab][Bip][AEEA][2Nal][Dab]N))" assayed_target="red blood cells" reading=76%

Asked: Tell me percent hemolytic activity against red blood cells (%H) reported for NCCCC[C@@H]1NC(=O)[C@H](Cc2ccc3ccccc3c2)NC(=O)COCCOCCNC(=O)[C@H](Cc2ccccc2)NC(=O)[C@H](CCCCN)NC(=O)[C@H](CCCCN)NC(=O)[C@H](Cc2ccc3ccccc3c2)NC(=O)[C@H](CCCCN)NC(=O)[C@H](CC(N)=O)NC1=O [compound 6] (cyclo(K[2Nal]KKF[AEEA][2Nal]KN))
Given back: 6%

Asked: Provide measured percent hemolytic activity against red blood cells (%H) value, entry: N=C(N)NCCC[C@@H]1NC(=O)[C@H](Cc2ccc3ccccc3c2)NC(=O)[C@H](CCN)NC(=O)[C@H](CC(N)=O)NC(=O)[C@H](CCN)NC(=O)[C@H](Cc2ccc3ccccc3c2)NC(=O)COCCOCCNC(=O)[C@H](Cc2ccc(-c3ccccc3)cc2)NC(=O)[C@H](CCN)NC1=O [compound 11] (cyclo([Dab][2Nal]R[Dab][Bip][AEEA][2Nal][Dab]N))
Given back: 36%

Asked: Give percent hemolytic activity against red blood cells (%H) for N=C(N)NCCC[C@@H]1NC(=O)[C@H](Cc2ccc3ccccc3c2)NC(=O)[C@H](CCN)NC(=O)[C@H](CC(N)=O)NC(=O)[C@H](CCN)NC(=O)[C@H](Cc2ccc3ccccc3c2)NC(=O)COCCOCCNC(=O)[C@H](Cc2ccccc2)NC(=O)[C@H](CCN)NC1=O [compound 18] (cyclo([Dab][2Nal]R[Dab]F[AEEA][2Nal][Dab]N))
Given back: 30%

---

system: A. baumannii ATCC 19606; assay type: cell-based; settings: ATCC 19606
Square brackets hold non-standard residues; d marks the D form. Peptide text beside a SMILES is read from it. Bip = N[C@@H](Cc1ccc(-c2ccccc2)cc1)C(=O)O; 2Nal = N[C@@H](Cc1ccc2ccccc2c1)C(=O)O; Dab = NCC[C@H](N)C(=O)O; AEEA = NCCOCCOCC(=O)O
Reported endpoint: Minimum inhibitory concentration AB (µg/mL)
// return numeric value only (unit: µg/mL, not printed)

compound="N=C(N)NCCC[C@@H]1NC(=O)[C@H](Cc2ccc3ccccc3c2)NC(=O)[C@H](CCN)NC(=O)[C@H](CC(N)=O)NC(=O)[C@H](CCN)NC(=O)[C@H](Cc2ccc3ccccc3c2)NC(=O)COCCOCCNC(=O)[C@H](Cc2ccc(-c3ccccc3)cc2)NC(=O)[C@H](CCN)NC1=O [compound 11] (cyclo([Dab][2Nal]R[Dab][Bip][AEEA][2Nal][Dab]N))" value_units=µg/mL reading=32

Continue with the next compound.
Asked: Give the reported Minimum inhibitory concentration AB for this compound. NCCCC[C@@H]1NC(=O)[C@H](CCCCN)NC(=O)[C@H](Cc2ccc3ccccc3c2)NC(=O)[C@H](CCCCN)NC(=O)[C@H](CCCCN)NC(=O)[C@H](CC(N)=O)NC(=O)[C@H](Cc2ccc3ccccc3c2)NC(=O)COCCOCCNC(=O)[C@H](Cc2ccc(-c3ccccc3)cc2)NC1=O [compound 1] (cyclo(K[2Nal]KK[Bip][AEEA][2Nal]NK))
Given back: 32
